# Test system: SK-MEL-5 melanoma
# test: NCI-60 one-dose screen, 48 h (100 = growth as untreated, 0 = no growth, -100 = all killed)
# experimentalSetup: 10 µM
This is part of a sample that, as a whole, favours compounds with a hit. Of some 83,000 tested, about 20% had one in any assay.
For each of the molecules below, state its growth.
Answers are plain numbers, in %.

Please report growth for every entry that follows.
1. CC1=CC(=O)c2ccccc2C1=O
2. O=C(O)CCCC(=O)O
3. CSc1[nH]c(=O)ncc1F
4. COc1ccc(Oc2c(I)cc(CC(NC(C)=O)C(=O)O)cc2I)cc1 (centres undefined)

[103, 102, 101, 60.7]

Please report growth for every entry that follows.
1. CCC(=O)Oc1ccc(OC)cc1
2. N=c1c(C(=O)OCc2ccccc2)ncc(CCl)n1O
3. O=C(/C=C/C(=O)c1ccccc1)c1ccccc1

1. 107
2. 96.9
3. 105

Please report growth for every entry that follows.
1. Oc1ccc2c(c1)OCC1(O)Cc3cc(O)c(O)cc3C21 (centres undefined)
2. Cc1ccc(C(=O)NC2c3ccccc3Oc3ccccc32)cc1

1. 95.5
2. 62.7

* * *

# Test system: M14 melanoma
# test: NCI-60 one-dose screen, 48 h (100 = growth as untreated, 0 = no growth, -100 = all killed)
# experimentalSetup: 10 µM
The panel holds about 83,000 compounds, 20% with a hit somewhere; the sample as a whole holds those more often.
parameter: growth (%)
Give bare numbers, in %.

[
  {
    "smilesEntry": "O=C1C=C(O)C(=O)C=C1O",
    "growth / %": 104
  }
]

Please report growth for every entry that follows.
1. CC[N+](C)(CC)CCO
2. O=C(/C=C\c1ccc(O)cc1)c1ccccc1

1. 104
2. 72.8

* * *

# System: U251 CNS
# test: NCI-60 one-dose screen, 48 h
# experimentalSetup: 10 µM
This is part of a sample that, as a whole, favours compounds with a hit. Of some 83,000 tested, about 20% had one in any assay. Active and inactive are the calls of the source. How the source made its calls: active means growth percent below 10; inactive means the rest.
Respond with a class label; see true (active), false (inactive)

# example entries with known answers
[
  {
    "compound": "CC1=NN(c2ccccc2)C(=O)/C1=C\\N1CC(=O)NC1=S",
    "discreteLabel": "false"
  },
  {
    "compound": "COC(=O)Nc1nc2ccc(C(=O)c3ccc(F)cc3)cc2[nH]1",
    "discreteLabel": "false"
  },
  {
    "compound": "S=C1CCCCCN1",
    "discreteLabel": "false"
  }
]

GET /call?item= CCOC(=O)C(CCC(C)C)C(=O)OCC returns the recorded outcome of this test.
false

GET /call?item= COc1ccc2c(NCCCCCCCCNc3c4ccccc4nc4cc(OC)ccc34)c3ccccc3nc2c1 returns the recorded outcome of this test.
true

* * *

# Tested on: BT-549 breast
# test: NCI-60 one-dose screen, 48 h (100 = growth as untreated, 0 = no growth, -100 = all killed)
# experimentalSetup: 10 µM
# Method: Growth inhibition of the BT-549 human tumor cell line is measured as a screen for anti-cancer activity. Cells are grown in 96 well plates and exposed to the test compound for 48 hours. Compounds are tested at a single concentration, which is 10^-5 M for most compounds. The reported endpoint is percent growth (GI% or GIPRCNT), where numbers from 0 - 100% represent growth inhibition, and numbers from -100% - 0 represent cell death. For example, a value of 40 represents 60% growth inhibition. […]
Compounds without any hit were thinned out: in the full panel of roughly 83,000, 20% have a hit.
For each of the molecules below, state its growth.
Give bare numbers, in %.

Answered examples (10):
[
  {
    "molecule": "CC(=O)Nc1c(C)cc(C)cc1C",
    "unitText": "%",
    "growth": 105
  },
  {
    "molecule": "COC(=O)Nc1cccc(Cl)c1OC",
    "unitText": "%",
    "growth": 111
  },
  {
    "molecule": "N#CCCc1ccc(O)cc1",
    "unitText": "%",
    "growth": 114
  },
  {
    "molecule": "CC(=O)Cc1ccc(-c2ccccc2)cc1",
    "unitText": "%",
    "growth": 109
  },
  {
    "molecule": "Nc1nc(N)c2cc(S(=O)(=O)c3cccc(C(F)(F)F)c3)ccc2n1",
    "unitText": "%",
    "growth": 76.8
  },
  {
    "molecule": "C=CCOC(=O)C(=O)OCC=C",
    "unitText": "%",
    "growth": 101
  },
  {
    "molecule": "CN(C)c1ccc(C(c2ccc(O)cc2)c2ccc(N(C)C)cc2)cc1",
    "unitText": "%",
    "growth": 103
  },
  {
    "molecule": "CCOC(=O)C(=O)C=P(c1ccccc1)(c1ccccc1)c1ccccc1",
    "unitText": "%",
    "growth": 102
  },
  {
    "molecule": "CC(=O)OCC1=CC2OC(=O)C3=COC(OC4OC(CO)C(O)C(O)C4O)C1C32 (centres undefined)",
    "unitText": "%",
    "growth": 110
  },
  {
    "molecule": "FC(F)(F)c1ccc2c(c1)N(CCCN1CCN(C3CC3)CC1)c1ccccc1S2",
    "unitText": "%",
    "growth": 61
  }
]

Please report growth for every entry that follows.
1. O=C(CN1CCNCC1)N1CCOCC1
2. CCCCCCCCO
3. COc1ccccc1C1OC2=Nc3cc(C)c(C)cc3NC2C1=O (centres undefined)
4. Cc1cc(/C=C/c2ccc3cc(N(C)C)ccc3[n+]2C)c(C)n1-c1ccccc1
5. CCOC(=O)C/C(C)=N\O
6. CC(CC(=O)c1ccccc1)c1ccccc1 (centres undefined)
7. CN(C)c1ccc2oc(=O)c3ccccc3c2c1
8. CCC(C)(O)c1ccc(C)cc1 (centres undefined)

[113, 107, 88.6, -52.2, 97.1, 107, 40.3, 105]
